System: MCF7
assay.summary: Anticancer activity against human MCF7 cells after 48 hrs by MTT assay
Assay type: functional, cell-based
particulars: MCF7, 48 h
Provide the recorded pIC50 for the entries that follow.
One number for each entry, as −log10 of the molar value.

Consider the following illustrative entries.
smiles_input=COc1cc([C@@H]2c3cc4c(cc3[C@@H](NC(=O)/C=C/c3ccc([N+](=O)[O-])cc3)[C@H]3COC(=O)[C@H]23)OCO4)cc(OC)c1OC numeric_value=5.00
smiles_input=COc1cc(/C=C/C(=O)c2cccc([N+](=O)[O-])c2)ccc1OCCCCCC(=O)N[C@@H]1c2cc3c(cc2[C@@H](c2cc(OC)c(OC)c(OC)c2)[C@H]2C(=O)OC[C@@H]21)OCO3 numeric_value=4.74

Okay, next one:
Endpoint output: pIC50 of COc1ccc(/C=C/C(=O)c2cc(OC)c(OC)c(OC)c2)cc1OCCCCCC(=O)N[C@@H]1c2cc3c(cc2[C@@H](c2cc(OC)c(OC)c(OC)c2)[C@H]2C(=O)OC[C@@H]21)OCO3 . Value?
4.90
